# procedure.details: JC-1 mitochondrial potential readout, lung cancer cells – cell-based, A549, JC-1 fluorescence, basal, 24 h, 100 nL, profiling panel (AID 1138);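 also: A549 lung adenocarcinoma cells under basal conditions with no added stimulus; test concentration not given here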
# condition.parameters: higher = more signal
# maps each entry to its z-score
metric.name: z-score

compound=CC(C)C(=C=CC[C@H](O)c1ccc(CO)o1)CCO metric_name=z-score measured_value=-0.589
compound=COCCOC(=O)N1C(=O)[C@@]2(c3cc(C#CC4(O)CCCCCC4)ccc31)[C@H](c1ccccc1OCCO)N1[C@H](c3ccccc3)[C@H](c3ccccc3)OC(=O)[C@H]1[C@@H]2C(=O)N1CCc2cc(OC)c(OC)cc2C1 metric_name=z-score measured_value=-0.932
compound=C#CCN1[C@H](/C=C/C2CC2)[C@H](Cc2ccccc2)OC(=O)[C@@H]1Cc1ccccc1 metric_name=z-score measured_value=3.8
compound=CCCCC(=C=CC[C@@H](O)c1ccc(CO)o1)CCO metric_name=z-score measured_value=0.622
compound="O=C1C2C=CC(C(O)c3ccc(-c4ccccc4)s3)N(Nc3ccccc3)C2C(=O)N1c1ccccc1 (stereo unspecified)" metric_name=z-score measured_value=0.267
compound=CC(=O)NCCCC[C@@H]1NC(=O)[C@H]2C[C@@H](C(=O)NCCCCCNC(=O)CS)[C@@H](c3ccc(O)cc3)N2C1=O metric_name=z-score measured_value=0.139
compound=[N-]=[N+]=Nc1ccccc1C[C@]1(C(=O)N2CCCCC2)COC(c2ccc(OCCCO)cc2)=N1 metric_name=z-score measured_value=0.124
compound=COCCCNC(=O)[C@]1(Cc2ccccc2)N=C(c2ccc(OCCCO)cc2)O[C@@H]1c1ccccc1CN=[N+]=[N-] metric_name=z-score measured_value=1.16
compound=CC(C)[Si](C#CCCCC#N)(Oc1ccccc1Br)C(C)C metric_name=z-score measured_value=-0.0477
compound=CCCC[C@@H]1C[C@H]1[C@@H](NC(=O)c1cccnc1)c1ccc(Cl)cc1 metric_name=z-score measured_value=0.66
compound="O=C1NC(=O)C2C1C=CC(C(O)C=Cc1ccc([N+](=O)[O-])cc1)N2Nc1ccc(Cl)cc1Cl (stereo unspecified)" metric_name=z-score measured_value=0.408
compound=COc1ccc([Si](C)(C)[C@H]2[C@H](CCn3cc([C@H](O)c4ccccc4)nn3)O[C@@]3(C(=O)N(C)c4ccccc43)[C@@H]2C)cc1 metric_name=z-score measured_value=1.65
compound=CC(C)(C)OC(=O)CC[C@@]1(C(=O)N2CCCCC2)N=C(c2ccc(OCCCO)cc2)O[C@@H]1c1ccccc1 metric_name=z-score measured_value=1.09
compound=[N-]=[N+]=Nc1ccccc1C[C@]1(C(=O)NCc2ccccc2)N=C(c2ccc(OCCCO)cc2)O[C@H]1c1ccccc1N=[N+]=[N-] metric_name=z-score measured_value=1.08
compound=C=CCN1Cc2ccccc2[C@@H]2OC(c3ccc(OCCCO)cc3)=N[C@]2(CCS(=O)(=O)c2ccccc2)C1=O metric_name=z-score measured_value=1.37
compound=[N-]=[N+]=NCc1ccccc1[C@H]1OC(c2ccc(OCCCO)cc2)=N[C@@]1(Cc1ccccc1)C(=O)N1CCCCC1 metric_name=z-score measured_value=0.779

###

# maps each entry to its composite z-score
# System: Lefty1
# procedure.details: Lefty1 protein binding to printed compounds – biochemical, small-molecule microarray, 635/667 nm fluorescence, primary screen (AID 1139)
# condition.parameters: fluorescence 635/667, higher = more signal
metric.name: composite z-score

compound=NC(=O)[C@@]1(Cc2ccccc2)N=C(c2ccc(OCCCO)cc2)O[C@H]1c1ccccc1 measured_value=-0.846
compound=CN(C)CCCCCCNC(=O)[C@@H]1C[C@@H]2C(=O)N[C@@H](CCCC[N+](C)(C)C)C(=O)N2[C@@H]1c1ccc(O)cc1 measured_value=0.798
compound="C=CCN(Cc1ccccc1)C(=O)C(c1cccs1)N(C(=O)/C=C\\C(=O)O)c1ccc(CCOCCO)cc1 (stereo unspecified)" measured_value=-1.16
compound="O=C1OCCC/C=C\\[C@H]2OC34C=CCN(c5ccc6ccccc6c5)C(=O)[C@H]3N(CCCCCO)C(=O)[C@@H]4C12 (stereo partly specified)" measured_value=-0.343
compound=COCCCNC(=O)[C@@]1(Cc2ccccc2)N=C(c2ccc(OCCCO)cc2)O[C@H]1c1ccccc1CN=[N+]=[N-] measured_value=0.872
compound=[N-]=[N+]=NCc1ccccc1[C@H]1OC(c2ccc(OCCCO)cc2)=N[C@@]1(Cc1ccccc1)C(=O)N1CCCCC1 measured_value=0.944
compound="COc1ccc(NN2C(C(O)c3ccc(N(C)C)cc3)C=CC3C(=O)N(C4CCCCC4)C(=O)C32)cc1 (stereo unspecified)" measured_value=0.27
compound="C=CCC(OC(C)=O)[C@@H]1[C@@H](N(Cc2cc3ccccc3o2)C(=O)Cc2ccc(OC)cc2)c2cc(OCCCO)ccc2N1C(=O)c1ccc2ccccc2c1 (stereo partly specified)" measured_value=0.128
compound="O=C1C2C=CC(C(O)C=Cc3ccc([N+](=O)[O-])cc3)N(Nc3ccccc3F)C2C(=O)N1c1ccccc1 (stereo unspecified)" measured_value=0.522
compound=COc1cc(CO)cc(I)c1O[C@H]1C=C(C(=O)NCCO)C[C@@H](N(C(=O)c2cc3ccccc3oc2=O)C2CCCCCC2)[C@@H]1O measured_value=0.803
compound="C=CCC(OC(C)=O)[C@@H]1[C@@H](N(Cc2ccc(-c3cccc(C(F)(F)F)c3)o2)C(=O)Cc2ccc(OC)cc2)c2cc(OCCCO)ccc2N1C(=O)c1ccc2ccccc2c1 (stereo partly specified)" measured_value=0.199
compound=O=C1O[C@@H](c2ccccc2)[C@@H](c2ccccc2)N2[C@@H](c3ccc(OCCO)cc3)[C@]3(C(=O)Nc4ccc(C#CC5=CCCCC5)cc43)[C@@H](C(=O)N3CCCCCCC3)[C@H]12 measured_value=1.55
compound=COC(=O)C[C@H]1O[C@@H](CCc2ccccc2)[C@@H](C)[C@@H]1[Si](C)(C)c1ccc(OC)cc1 measured_value=-0.105
compound=COCCCNC(=O)[C@@H]1c2ccccc2C(=O)N(Cc2ccccc2)[C@H]1c1ccc(CO)cc1 measured_value=0.206
compound=O=c1cccc(-c2ccccc2Cl)o1 measured_value=0.0182
compound=COCCOC(=O)N1C(=O)[C@@]2(c3ccccc31)[C@H](c1ccc(OCCO)cc1)N1[C@H](c3ccccc3)[C@H](c3ccccc3)OC(=O)[C@H]1[C@@H]2C(=O)N1CCc2cc(OC)c(OC)cc2C1 measured_value=1.35
compound=C=C(CCCC)C(=O)CC[C@@H](OC(C)=O)c1ccc(CO)o1 measured_value=1.64
compound=O=C1C[C@@](C(=O)NCc2ccccc2)(c2ccc([N+](=O)[O-])cc2)[C@@H](c2ccc(CO)cc2)N1CC12CC3CC(CC(C3)C1)C2 measured_value=0.943
compound=CN(C)CCCC[C@@H]1NC(=O)[C@H]2C[C@@H](C(=O)NCCCCCN)[C@@H](c3cccc(OCCO)c3)N2C1=O measured_value=1.66
compound=C=CCN1C(=O)[C@]2(Cc3ccccc3)N=C(c3ccc(OCCCO)cc3)O[C@@H]2c2ccccc21 measured_value=0.816
compound=COc1ccccc1CN1C(=O)c2ccccc2[C@@]2(Cc3ccccc3N(CCCN(C)C)C2=O)[C@@H]1c1ccc(CO)cc1 measured_value=0.647
compound="CC(c1ccccc1)C(O)C1C=CC2C(=O)N(C)C(=O)C2N1NC(=O)OC(C)(C)C (stereo unspecified)" measured_value=-0.271
compound=CCOC(=O)C1=CC[C@@H](c2ccc(C(F)(F)F)cc2)N(S(=O)(=O)c2ccc(C)cc2)[C@H]1c1ccccc1 measured_value=0.0777
compound="CN1CCC(CCCO)=CC1c1cccs1 (stereo unspecified)" measured_value=0.118
compound=C=C(CCCC)/C(=C/C[C@H](OC(C)=O)c1ccccc1OCCO)c1cnc2ccccc2c1 measured_value=0.861
compound=C#CCNCc1ccccc1 measured_value=0.0644
compound="CCOc1cc(C(O)C2C=CC3C(=O)N(c4ccccc4)C(=O)C3N2Nc2ccc(C(C)C)cc2)ccc1O (stereo unspecified)" measured_value=0.135
compound="CC(C)=CCCC(C)=CC(O)C1C=CC2C(=O)N(c3ccccc3)C(=O)C2N1Nc1ccc(C(C)C)cc1 (stereo unspecified)" measured_value=0.262
compound=COC(=O)[C@@]1(Cc2ccc(OC)cc2)[C@H]2c3cc(C(=O)N4CCCC4)n(Cc4nc5ccccc5[nH]4)c3C[C@H]2CN1C(=O)c1ccccc1 measured_value=-0.47
compound=COc1ccc([Si](C)(C)[C@@H]2[C@@H](CCO)O[C@]3(C(=O)N(Cc4cccc(N5CCOC5=O)c4)c4ccccc43)[C@H]2C)cc1 measured_value=0.26
compound=CCOC(=O)[C@H]1C/C=C/C[C@H](C(=O)OCC)C(=O)O[C@H]2[C@@H](OC)O[C@H](CO)[C@@H](OC(=O)c3ccc(Br)cc3)[C@@H]2OC1=O measured_value=0.31

Ref: PubChem BioAssay
